- System: 7G8
- measurement-notes: qHTS profiling for inhibitors of Plasmodium falciparum proliferation (AID 504749); further: nearly all actives have a fitted effect of over 60% in size
- recorded-conditions: P. falciparum in erythrocytes, SYBR Green DNA, 72 h; series mostly up to 28.7 µM
Inconclusive results are not listed. Activity calls are given as the source filed them. The call rests on the fitted dose curve; in most records, active means well fitted inhibition curve with a large enough effect; inconclusive means small, poorly fitted or top-dose-only effect; inactive means flat fitted curve, though single readings scatter.
Your response should consist of one outcome taken from active, inactive

For CCCN(CCc1cccs1)[C@H]1CCc2c(O)cccc2C1 , what call appears in the results of this test?
active

For OC1C(O)C(O)C(O)C(O)C1O (centres undefined) , what call appears in the results of this test?
inactive

For CCCCCCCCCCCCCCCC(=O)O , what call appears in the results of this test?
inactive

For FC(F)(F)C(F)(F)C(F)(F)C(F)(F)C(F)(F)C(F)(F)C(F)(F)C(F)(F)Br , what call appears in the results of this test?
inactive

For CCN(CC)CCNc1ccc(CO)c2sc3ccccc3c(=O)c12 , what call appears in the results of this test?
active

For Cc1ncc(CO)c(C=O)c1O , what call appears in the results of this test?
inactive

For CCCCN=C(N)N=C(N)N , what call appears in the results of this test?
inactive

For CCOc1ccccc1C(N)=O , what call appears in the results of this test?
inactive

For CC(C)Cn1cnc2c1c(=O)n(C)c(=O)n2C , what call appears in the results of this test?
inactive

For CC(=O)N[C@@H](CCC(=O)O)C(=O)O , what call appears in the results of this test?
inactive

For OCc1ccccn1 , what call appears in the results of this test?
inactive

For NC(N)=NCc1cccc(I)c1 , what call appears in the results of this test?
inactive

For COc1cc(O)c(C(=O)c2ccccc2)cc1S(=O)(=O)O , what call appears in the results of this test?
active

For OCCOCCN1CCN(C2=Nc3ccccc3Sc3ccccc32)CC1 , what call appears in the results of this test?
inactive

----------
- measurement-notes: S16 Schwann cell PMP22 intronic element firefly luciferase assay (AID 624032); further: nearly all actives have a fitted effect of over 30% in size
- recorded-conditions: S16 rat Schwann cells, PMP22 element FLuc, 24 h; series mostly up to 57.5 µM
Results filed as inconclusive are left out. The source made the active and inactive calls. Calls come from the whole dose curve; as a rule, active = well fitted inhibition curve with a large enough effect; inconclusive = small, poorly fitted or top-dose-only effect; inactive = no such curve, though single readings can be large or run the other way.
Your response should consist of one outcome taken from active, inactive

For Cl/C(=C\n1cncn1)c1ccc(Cl)cc1Cl , what call appears in the results of this test?
inactive

For CC(=O)OC[C@H]1O[C@@H](n2ncc(=O)[nH]c2=O)[C@H](OC(C)=O)[C@@H]1OC(C)=O , what call appears in the results of this test?
inactive

For CCN(CC)CCNc1ccc(CO)c2sc3ccccc3c(=O)c12 , what call appears in the results of this test?
active

For CC(C)(C)CC(C)(C)c1ccc(O)c(-n2nc3ccccc3n2)c1 , what call appears in the results of this test?
inactive

For CCOC(=O)[C@H](CCc1ccccc1)N[C@@H](C)C(=O)N1[C@H](C(=O)O)C[C@H]2CCCC[C@@H]21 , what call appears in the results of this test?
inactive

----------
Kindly supply the reported max response values for the records listed here.
- Test system: KB-3-1
- measurement-notes: Cytotoxic Profiling of Annotated Libraries Using Quantitative High-Throughput Screening (AID 1296008); further: on the % scale 0 is the no-effect control and ±100 the full control effect; nearly all actives have a fitted effect of over 60% in size
- recorded-conditions: Five cell lines viability, CellTiter-Glo ATP luminescence, 48-72 h; hits give low values
Results filed as inconclusive are left out.
The figure you give is taken to be in %; do not add the unit.

The measured max response associated with COc1cc(C(=O)NCc2ccc(OCCN(C)C)cc2)cc(OC)c1OC reads -11.1

The measured max response associated with Nc1ccc(S(=O)(=O)NCc2ccccc2)cc1 reads -2.49

The measured max response associated with CN1CCc2cccc3c2[C@H]1Cc1ccc(O)c(O)c1-3 reads 10.6

The measured max response associated with O=C(Nc1ccc([N+](=O)[O-])cc1)Nc1ccc([N+](=O)[O-])cc1 reads -1.19

The measured max response associated with OC(C#CCN1CCCC1)(c1ccccc1)c1ccccc1 reads 0.398

The measured max response associated with COc1ccc(C(Cl)=C(c2ccc(OC)cc2)c2ccc(OC)cc2)cc1 reads 9.01

----------
- Tested on: 3D7
- measurement-notes: qHTS profiling for inhibitors of Plasmodium falciparum proliferation (AID 504749); further: nearly all actives have a fitted effect of over 60% in size
- recorded-conditions: P. falciparum in erythrocytes, SYBR Green DNA, 72 h; series mostly up to 28.7 µM
Inconclusive results are not listed. Activity calls are given as the source filed them. Calls follow the shape of the dose curve; as a rule, active = well fitted inhibition curve with a large enough effect; inconclusive = small, poorly fitted or top-dose-only effect; inactive = flat fitted curve, though single readings scatter.
Your response should consist of one outcome taken from active, inactive

For Nc1ccc(S(=O)(=O)NCc2ccccc2)cc1 , what call appears in the results of this test?
inactive

For CCOC(=O)[C@H](CCc1ccccc1)N[C@@H](C)C(=O)N1[C@H](C(=O)O)C[C@H]2CCCC[C@@H]21 , what call appears in the results of this test?
inactive

For CCN(CC)CCNc1ccc(CO)c2sc3ccccc3c(=O)c12 , what call appears in the results of this test?
active

For NC(N)=NCc1cccc(I)c1 , what call appears in the results of this test?
inactive

For Cc1cc(CC(=O)O)c(C)n1-c1ccc(Cl)cc1 , what call appears in the results of this test?
inactive

For O=C(O)CCC(=O)Nc1ccc(S(=O)(=O)Nc2nccs2)cc1 , what call appears in the results of this test?
inactive

For COc1cc(C(=S)N2CCOCC2)ccc1O , what call appears in the results of this test?
inactive

----------
- Test system: CP291
- measurement-notes: qHTS profiling for inhibitors of Plasmodium falciparum proliferation (AID 504749); further: nearly all actives have a fitted effect of over 60% in size
- recorded-conditions: P. falciparum in erythrocytes, SYBR Green DNA, 72 h; series mostly up to 28.7 µM
Results filed as inconclusive are left out. The source made the active and inactive calls. Calls come from the whole dose curve; as a rule, active = well fitted inhibition curve with a large enough effect; inconclusive = small, poorly fitted or top-dose-only effect; inactive = flat fitted curve, though single readings scatter.
Your response should consist of one outcome taken from 1 for active, -1 for inactive

For C[N+]1(CC2COC(c3ccccc3)(C3CCCCC3)O2)CCCCC1 (centres undefined) , what call appears in the results of this test?
1

For CC(=O)Nc1ccc(CC(=O)O)cc1 , what call appears in the results of this test?
-1

For C/C=C/C=N/NC(=O)c1ccncc1 , what call appears in the results of this test?
-1

For O=c1[nH]c(=O)n([C@H]2C[C@H](O)[C@@H](CO)O2)cc1F , what call appears in the results of this test?
-1

----------
- System: Hek293T
- measurement-notes: Primary qHTS to identify gynecologic anti-cancer compounds using libraries of approved drugs and bioactive compounds (AID 1345084); further: nearly all actives have a fitted effect of over 55% in size
- recorded-conditions: Gynecologic cancer cell panel viability, ATPlite luminescence, 48 h, control line for the selectivity index; series mostly up to 57.5 µM
Results filed as inconclusive are left out. Activity calls are given as the source filed them. The call rests on the fitted dose curve; in most records, active means well fitted cell-killing curve with a large enough effect; inconclusive means small, poorly fitted or top-dose-only effect, or effect the other way; inactive means flat fitted curve, though single readings scatter.
Your response should consist of one outcome taken from label 1 (active), label 0 (inactive)

For NS(=O)(=O)c1cc(C(=O)O)cc(N2CCCC2)c1Oc1ccccc1 , what call appears in the results of this test?
label 0

For Cc1cc(NS(=O)(=O)c2ccc(N)cc2)nc(C)n1 , what call appears in the results of this test?
label 0

For O=C(CCN1CCN2CCCC2C1)N1c2ccccc2Sc2ccc(Cl)cc21 (centres undefined) , what call appears in the results of this test?
label 0

For CCN(CC)CCOC(=O)C1(c2ccccc2)CCCC1 , what call appears in the results of this test?
label 0

For O=C(CN1CCN(Cc2ccc3c(c2)OCO3)CC1)N1c2ccccc2Sc2ccccc21 , what call appears in the results of this test?
label 0

For CCNC(=O)NCc1cccc(Cl)c1 , what call appears in the results of this test?
label 0

For CCOC(=O)c1ccc(N)cc1 , what call appears in the results of this test?
label 0

For FC1(F)C(F)(F)C(F)(F)C2(F)C(F)(F)C(F)(F)C(F)(F)C(F)(F)C2(F)C1(F)F (centres undefined) , what call appears in the results of this test?
label 0

For NS(=O)(=O)c1cc2c(cc1Cl)NC(CC1CCCC1)NS2(=O)=O (centres undefined) , what call appears in the results of this test?
label 0

For CC(=O)Nc1ncc([N+](=O)[O-])s1 , what call appears in the results of this test?
label 0

For CC(C)(C)NCC(O)COc1cccc2c1C[C@H](O)[C@H](O)C2 (some centres undefined) , what call appears in the results of this test?
label 0

For COC(=O)C(c1ccccc1Cl)N1CCc2sccc2C1 (centres undefined) , what call appears in the results of this test?
label 0

For CC1(C)OC[C@@H]2O[C@@]3(C(=O)O)OC(C)(C)O[C@H]3[C@@H]2O1 , what call appears in the results of this test?
label 0

For CC(C)(C)NC[C@H](O)COc1cccc2c1CCCC2=O , what call appears in the results of this test?
label 0

For CCC(C(=O)OCCOCCN(CC)CC)c1ccccc1 (centres undefined) , what call appears in the results of this test?
label 0

For CCN(CC)CCNc1ccc(CO)c2sc3ccccc3c(=O)c12 , what call appears in the results of this test?
label 1

For NCc1ccccc1Sc1ccccc1CO , what call appears in the results of this test?
label 0

For O=C(Nc1cccc(C2=NCCN2)c1)Nc1cccc(C2=NCCN2)c1 , what call appears in the results of this test?
label 0

For O=C1C(CCS(=O)c2ccccc2)C(=O)N(c2ccccc2)N1c1ccccc1 (centres undefined) , what call appears in the results of this test?
label 0

For CCCCN1C[C@H](O)[C@@H](O)[C@H](O)[C@H]1CO , what call appears in the results of this test?
label 0

For CCc1oc2ccccc2c1C(=O)c1cc(Br)c(O)c(Br)c1 , what call appears in the results of this test?
label 0

For COc1cc(NS(=O)(=O)c2ccc(N)cc2)ncn1 , what call appears in the results of this test?
label 0

For O=C(O)c1ccc(S(=O)(=O)N(Cl)Cl)cc1 , what call appears in the results of this test?
label 0

For Nc1ccc(S(=O)(=O)NCc2ccccc2)cc1 , what call appears in the results of this test?
label 0
